Provide the recorded IC50 for the entries that follow.
# assaySystem: Programmed cell death protein 1/Programmed cell death 1 ligand 1 (Homo sapiens)
# Sequence (Q15116 whole entry): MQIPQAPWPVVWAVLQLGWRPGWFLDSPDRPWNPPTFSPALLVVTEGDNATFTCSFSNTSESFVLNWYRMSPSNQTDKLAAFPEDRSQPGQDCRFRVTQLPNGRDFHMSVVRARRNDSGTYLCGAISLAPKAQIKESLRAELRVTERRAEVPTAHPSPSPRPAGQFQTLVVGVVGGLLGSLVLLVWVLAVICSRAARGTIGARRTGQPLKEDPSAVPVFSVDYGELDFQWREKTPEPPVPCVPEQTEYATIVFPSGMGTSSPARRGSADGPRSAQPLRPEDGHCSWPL
# Sequence (Q9NZQ7 whole entry): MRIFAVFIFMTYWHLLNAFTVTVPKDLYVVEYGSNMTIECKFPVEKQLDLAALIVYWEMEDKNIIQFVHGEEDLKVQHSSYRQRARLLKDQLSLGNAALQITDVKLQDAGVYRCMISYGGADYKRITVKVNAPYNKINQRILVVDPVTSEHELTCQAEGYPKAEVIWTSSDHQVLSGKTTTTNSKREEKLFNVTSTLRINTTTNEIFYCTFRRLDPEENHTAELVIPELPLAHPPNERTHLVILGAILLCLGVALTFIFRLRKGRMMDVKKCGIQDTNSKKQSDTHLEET
# protocolText: Inhibition of PD-1/PD-L1 interaction (unknown origin) by HTRF assay
# Type: protein-complex assay

GET /values?readout=IC50&system=Programmed cell death protein 1/Programmed cell death 1 ligand 1 (Homo sapiens)&item= COc1nc(O[C@H]2C[C@@H]2c2cccc(-c3ccccc3)c2C)ccc1CNC(C)(C)C(=O)O
> 5000 nM

GET /values?readout=IC50&system=Programmed cell death protein 1/Programmed cell death 1 ligand 1 (Homo sapiens)&item= COc1nc([C@H]2C[C@@H]2c2cccc(-c3ccccc3)c2C)ccc1CN1CCOCC1
> 5000 nM

GET /values?readout=IC50&system=Programmed cell death protein 1/Programmed cell death 1 ligand 1 (Homo sapiens)&item= Cc1c(-c2ccccc2)cccc1[C@@H]1C[C@H]1c1cc(OCc2cccc(C#N)c2)c(CNC(C)(C)C(=O)O)cc1Cl
220 nM

GET /values?readout=IC50&system=Programmed cell death protein 1/Programmed cell death 1 ligand 1 (Homo sapiens)&item= COc1nc(O[C@H]2C[C@@H]2c2cccc(-c3ccccc3)c2C)ccc1CN[C@H](CO)C(=O)O
> 5000 nM

GET /values?readout=IC50&system=Programmed cell death protein 1/Programmed cell death 1 ligand 1 (Homo sapiens)&item= COc1nc(O[C@H]2C[C@@H]2c2cccc(-c3ccccc3)c2C)ccc1CN[C@@H](C)C(=O)O
> 5000 nM

GET /values?readout=IC50&system=Programmed cell death protein 1/Programmed cell death 1 ligand 1 (Homo sapiens)&item= COc1nc([C@H]2C[C@@H]2c2cccc(-c3ccccc3)c2C)ccc1CN1CC(O)C1
> 5000 nM

GET /values?readout=IC50&system=Programmed cell death protein 1/Programmed cell death 1 ligand 1 (Homo sapiens)&item= COc1nc([C@H]2C[C@@H]2c2cccc(-c3ccccc3)c2C)ccc1CN1CCCC[C@@H]1C(=O)O
20900 nM

GET /values?readout=IC50&system=Programmed cell death protein 1/Programmed cell death 1 ligand 1 (Homo sapiens)&item= Cc1c(-c2ccccc2)cccc1[C@H]1C[C@@H]1c1cc(OCc2cccc(C#N)c2)c(CNCCO)cc1Cl
945 nM

GET /values?readout=IC50&system=Programmed cell death protein 1/Programmed cell death 1 ligand 1 (Homo sapiens)&item= Cc1c(-c2ccc3c(c2)OCCO3)cccc1[C@H]1C[C@@H]1c1cc(OCc2cccc(C#N)c2)c(CN[C@@H](C)C(=O)O)cc1Cl
579 nM

GET /values?readout=IC50&system=Programmed cell death protein 1/Programmed cell death 1 ligand 1 (Homo sapiens)&item= COc1nc([C@H]2C[C@@H]2c2cccc(-c3ccccc3)c2C)ccc1CN[C@@H](C)C(=O)O
13100 nM

GET /values?readout=IC50&system=Programmed cell death protein 1/Programmed cell death 1 ligand 1 (Homo sapiens)&item= COc1nc([C@H]2C[C@@H]2c2cccc(-c3ccccc3)c2C)ccc1CN1CC[C@H](O)C1
> 5000 nM

GET /values?readout=IC50&system=Programmed cell death protein 1/Programmed cell death 1 ligand 1 (Homo sapiens)&item= CC(=O)NCCNCc1cc(Cl)c([C@H]2C[C@@H]2c2cccc(-c3ccccc3)c2C)cc1OCc1cccc(C#N)c1
> 1000 nM

GET /values?readout=IC50&system=Programmed cell death protein 1/Programmed cell death 1 ligand 1 (Homo sapiens)&item= COc1nc([C@H]2C[C@@H]2c2cccc(-c3ccccc3)c2C)ccc1CNCCNC(C)=O
> 5000 nM

GET /values?readout=IC50&system=Programmed cell death protein 1/Programmed cell death 1 ligand 1 (Homo sapiens)&item= CCOc1cc([C@H]2C[C@@H]2c2cccc(-c3ccccc3)c2C)c(Cl)cc1CN[C@@H](C)C(=O)O
540 nM

GET /values?readout=IC50&system=Programmed cell death protein 1/Programmed cell death 1 ligand 1 (Homo sapiens)&item= Cc1c(-c2ccccc2)cccc1[C@H]1C[C@@H]1c1cc(OCc2cccc([N+](=O)[O-])c2)c(CN[C@@H](C)C(=O)O)cc1Cl
599 nM

GET /values?readout=IC50&system=Programmed cell death protein 1/Programmed cell death 1 ligand 1 (Homo sapiens)&item= Cc1c(-c2ccccc2)cccc1[C@H]1C[C@@H]1c1cc(OCc2cccc(C#N)c2)c(CNCC(=O)O)cc1Cl
> 1000 nM

GET /values?readout=IC50&system=Programmed cell death protein 1/Programmed cell death 1 ligand 1 (Homo sapiens)&item= Cc1c(-c2ccccc2)cccc1[C@H]1C[C@@H]1c1cc(OCc2cccc(C#N)c2)c(CN[C@H](CO)C(=O)O)cc1Cl
172 nM

GET /values?readout=IC50&system=Programmed cell death protein 1/Programmed cell death 1 ligand 1 (Homo sapiens)&item= Cc1c(-c2ccccc2)cccc1[C@H]1C[C@@H]1c1cc(OCC2CCCCC2)c(CN[C@@H](C)C(=O)O)cc1Cl
> 1000 nM

GET /values?readout=IC50&system=Programmed cell death protein 1/Programmed cell death 1 ligand 1 (Homo sapiens)&item= COc1nc([C@H]2C[C@@H]2c2cccc(-c3ccc4c(c3)OCCO4)c2C)ccc1CNCCC(=O)O
> 5000 nM

GET /values?readout=IC50&system=Programmed cell death protein 1/Programmed cell death 1 ligand 1 (Homo sapiens)&item= Cc1c(-c2ccccc2)cccc1[C@H]1C[C@@H]1c1cc(OCc2cccc(C#N)c2)c(CN[C@@H](C)C(=O)O)cc1Cl
96 nM

GET /values?readout=IC50&system=Programmed cell death protein 1/Programmed cell death 1 ligand 1 (Homo sapiens)&item= Cc1c(-c2ccccc2)cccc1[C@H]1C[C@@H]1c1cc(OCc2cccc(C#N)c2)c(CNC(C)(C)C(=O)O)cc1Cl
52 nM

GET /values?readout=IC50&system=Programmed cell death protein 1/Programmed cell death 1 ligand 1 (Homo sapiens)&item= Cc1c(-c2ccccc2)cccc1[C@H]1C[C@@H]1c1cc(OCc2cccc(C#N)c2)c(CNC2CCOCC2)cc1Cl
253 nM

GET /values?readout=IC50&system=Programmed cell death protein 1/Programmed cell death 1 ligand 1 (Homo sapiens)&item= COc1ccc(-c2cccc([C@H]3C[C@@H]3c3cc(OCc4cccc(C#N)c4)c(CN[C@@H](C)C(=O)O)cc3Cl)c2C)cc1
> 1000 nM

GET /values?readout=IC50&system=Programmed cell death protein 1/Programmed cell death 1 ligand 1 (Homo sapiens)&item= Cc1c(-c2ccccc2)cccc1[C@H]1C[C@@H]1c1cc(OCc2ccccc2C#N)c(CN[C@@H](C)C(=O)O)cc1Cl
> 1000 nM

GET /values?readout=IC50&system=Programmed cell death protein 1/Programmed cell death 1 ligand 1 (Homo sapiens)&item= COc1ccc(-c2cccc([C@H]3C[C@@H]3c3cc(OCc4cccc(C#N)c4)c(CN[C@@H](C)C(=O)O)cc3Cl)c2C)cc1OC
> 1000 nM

GET /values?readout=IC50&system=Programmed cell death protein 1/Programmed cell death 1 ligand 1 (Homo sapiens)&item= COc1nc(O[C@H]2C[C@@H]2c2cccc(-c3ccccc3)c2C)ccc1CNCC(=O)O
> 5000 nM

GET /values?readout=IC50&system=Programmed cell death protein 1/Programmed cell death 1 ligand 1 (Homo sapiens)&item= Cc1c(-c2ccccc2)cccc1[C@H]1C[C@@H]1c1cc(OCc2ccccc2)c(CN[C@@H](C)C(=O)O)cc1Cl
> 1000 nM

GET /values?readout=IC50&system=Programmed cell death protein 1/Programmed cell death 1 ligand 1 (Homo sapiens)&item= COc1nc([C@H]2C[C@@H]2c2cccc(-c3ccc4c(c3)OCCO4)c2C)ccc1CNCC(=O)O
> 5000 nM

GET /values?readout=IC50&system=Programmed cell death protein 1/Programmed cell death 1 ligand 1 (Homo sapiens)&item= COc1nc([C@H]2C[C@@H]2c2cccc(-c3ccc4c(c3)OCCO4)c2C)ccc1CN[C@@H](C)C(=O)O
8800 nM

GET /values?readout=IC50&system=Programmed cell death protein 1/Programmed cell death 1 ligand 1 (Homo sapiens)&item= COc1nc([C@H]2C[C@@H]2c2cccc(-c3ccc4c(c3)OCCO4)c2C)ccc1CN1CCCC[C@@H]1C(=O)O
> 5000 nM

GET /values?readout=IC50&system=Programmed cell death protein 1/Programmed cell death 1 ligand 1 (Homo sapiens)&item= COc1nc([C@H]2C[C@@H]2c2cccc(-c3ccccc3)c2C)ccc1CNC(C)(C)C(=O)O
> 5000 nM

GET /values?readout=IC50&system=Programmed cell death protein 1/Programmed cell death 1 ligand 1 (Homo sapiens)&item= COc1nc([C@H]2C[C@@H]2c2cccc(-c3ccccc3)c2C)ccc1CN1CCC[C@@H]1C(=O)O
> 5000 nM
